biological target: Acetylcholinesterase (Homo sapiens)
Sequence (P22303 whole entry): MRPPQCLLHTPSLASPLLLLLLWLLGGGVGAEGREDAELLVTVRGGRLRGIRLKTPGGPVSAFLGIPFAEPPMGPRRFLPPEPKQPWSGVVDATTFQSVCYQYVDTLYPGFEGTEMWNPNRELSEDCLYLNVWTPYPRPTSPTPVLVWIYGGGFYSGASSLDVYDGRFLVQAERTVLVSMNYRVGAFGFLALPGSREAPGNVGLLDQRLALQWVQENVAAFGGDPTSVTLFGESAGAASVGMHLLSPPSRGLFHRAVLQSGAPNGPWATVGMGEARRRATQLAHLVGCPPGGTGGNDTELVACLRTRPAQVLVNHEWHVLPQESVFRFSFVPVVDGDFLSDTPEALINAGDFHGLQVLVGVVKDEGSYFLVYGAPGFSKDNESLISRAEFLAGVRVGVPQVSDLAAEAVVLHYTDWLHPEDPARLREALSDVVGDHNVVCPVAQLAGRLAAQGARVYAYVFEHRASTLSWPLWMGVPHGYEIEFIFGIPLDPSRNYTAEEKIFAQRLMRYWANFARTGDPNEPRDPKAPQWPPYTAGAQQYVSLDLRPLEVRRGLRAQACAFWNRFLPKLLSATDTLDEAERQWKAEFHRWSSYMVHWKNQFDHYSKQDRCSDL
pIC50: −log10 of the molar value.

# compound, pIC50
rows = [
    ("CC(=O)O[C@H]1CC[C@@]2(C)[C@@H](CC[C@@]3(C)C[C@@]4(O)CC[C@H]5C(C)(C)[C@@H](OC(C)=O)CC[C@]5(C)[C@H]4CC[C@@H]32)C1(C)C", 6.04),
    ("CC1(C)[C@H](O)CC[C@@]2(C)[C@H]1CC[C@@]1(C)CC3=CC[C@H]4C(C)(C)[C@@H](O)CC[C@]4(C)[C@H]3CC[C@@H]12", "< 4.52"),
    ("C[C@@]12CC[C@@H]3[C@](C)(CC[C@H](OC(=O)/C=C/c4ccc(O)cc4)[C@]3(C)C(=O)O)[C@H]1CC[C@H]1C(=CC[C@@H]3[C@]1(C)CC[C@@H](O)[C@]3(C)CO)C2", "< 4.52"),
    ("C[C@@]12CC[C@@H]3[C@](C)(CC[C@H](O)[C@]3(C)C(=O)O)[C@H]1CC[C@H]1C(=CC(=O)[C@@H]3[C@]1(C)CC[C@@H](O)[C@]3(C)CO)C2", "< 4.52"),
    ("CC1(C)[C@H](O)CC[C@@]2(C)[C@H]1CC[C@@]1(C)CC3=CC[C@H]4C(C)(C)[C@H](O)CC[C@]4(C)[C@H]3CC[C@@H]12", "< 4.52"),
    ("CC1(C)[C@H](O)CC[C@]2(C)[C@H]3CC[C@H]4[C@@](C)(CC[C@@H]5[C@]4(C)CC[C@@H](O)[C@]5(C)C(=O)O)CC3=CC(=O)[C@@H]12", "< 4.52"),
    ("COC(=O)[C@]1(C)[C@@H]2CC[C@@]3(C)CC4=CC(=O)[C@@H]5[C@](C)(CC[C@@H](O)[C@]5(C)CO)[C@H]4CC[C@@H]3[C@@]2(C)CC[C@@H]1O [LYCERNUIC KETONE A]", "< 4.52"),
    ("COc1ccc(C(=O)O[C@H]2CC[C@@]3(C)[C@@H](CC[C@@]4(C)C[C@@]5(O)[C@H](CC[C@@H]43)[C@@]3(C)CC[C@@H](O)C(C)(C)[C@@H]3C[C@@H]5O)[C@@]2(C)C(=O)O)cc1O", 5.00),
    ("CC1(C)C(=O)CC[C@@]2(C)[C@H]1CC[C@@]1(C)CC3=CC(=O)[C@H]4C(C)(C)[C@H](O)CC[C@]4(C)[C@H]3CC[C@@H]12", 4.97),
    ("CCCC[C@@H](O)/C=C/C=C/C(=O)O", 6.66),
    ("CC1(C)[C@@H](O)CC[C@@]2(C)[C@H]1CC[C@@]1(C)C[C@@]3(O)CC[C@H]4C(C)(C)[C@@H](O)CC[C@]4(C)[C@H]3CC[C@@H]12", "< 4.52"),
    ("C[C@@]12CC[C@@H]3[C@](C)(CC[C@H](OC(=O)CCc4ccc(O)cc4)[C@]3(C)C(=O)O)[C@H]1CC[C@H]1C(=CC[C@@H]3[C@]1(C)CC[C@@H](O)[C@]3(C)CO)C2", 5.77),
    ("C[C@@]12CC[C@@H]3[C@](C)(CC[C@H](OC(=O)c4ccc(O)cc4)[C@]3(C)C(=O)O)[C@H]1CC[C@@H]1[C@@]3(C)CC[C@@H](O)[C@](C)(CO)[C@@H]3C[C@H](O)[C@@]1(O)C2", "< 4.52"),
]

* * *

Observed Ki for Acetylcholinesterase (Homo sapiens), reported per entry below.

# givenSmiles, Ki [nM]
rows = [
    ("C[C@@]12CC[C@@H]3[C@](C)(CC[C@H](OC(=O)CCc4ccc(O)cc4)[C@]3(C)C(=O)O)[C@H]1CC[C@H]1C(=CC[C@@H]3[C@]1(C)CC[C@@H](O)[C@]3(C)CO)C2", 7970),
    ("CCCC[C@@H](O)/C=C/C=C/C(=O)O", 1170),
    ("CC(=O)O[C@H]1CC[C@@]2(C)[C@@H](CC[C@@]3(C)C[C@@]4(O)CC[C@H]5C(C)(C)[C@@H](OC(C)=O)CC[C@]5(C)[C@H]4CC[C@@H]32)C1(C)C", 2490),
]

* * *

The reader will find reported pIC50 values listed item by item below.
molecular target: Cholinesterase (Homo sapiens, UniProt P06276); test: Inhibition of BChE (unknown origin) using butyrylthiocholine as substrate assessed as substrate hydrolysis by spectrophotometric/Ellman method
Sequence (P06276 whole entry): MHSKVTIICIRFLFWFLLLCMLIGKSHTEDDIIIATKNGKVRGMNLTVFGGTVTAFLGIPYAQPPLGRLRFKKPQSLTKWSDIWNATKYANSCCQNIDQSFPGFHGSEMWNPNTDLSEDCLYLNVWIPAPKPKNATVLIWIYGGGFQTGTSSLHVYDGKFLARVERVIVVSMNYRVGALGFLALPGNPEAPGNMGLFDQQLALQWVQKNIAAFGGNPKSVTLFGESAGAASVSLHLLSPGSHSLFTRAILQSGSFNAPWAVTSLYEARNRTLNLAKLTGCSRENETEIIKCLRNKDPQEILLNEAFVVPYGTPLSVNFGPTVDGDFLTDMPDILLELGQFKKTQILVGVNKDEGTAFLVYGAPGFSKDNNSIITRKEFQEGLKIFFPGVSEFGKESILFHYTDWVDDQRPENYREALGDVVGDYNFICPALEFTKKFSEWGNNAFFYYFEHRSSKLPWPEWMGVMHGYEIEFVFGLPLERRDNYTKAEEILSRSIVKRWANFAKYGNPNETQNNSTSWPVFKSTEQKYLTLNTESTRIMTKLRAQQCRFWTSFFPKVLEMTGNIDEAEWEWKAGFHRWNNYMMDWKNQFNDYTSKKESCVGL
pIC50: −log10 of the molar value.
measuredParameter: pIC50

# givenSmiles, measuredParameter, assayResult
data = [
    ("COC(=O)[C@]1(C)[C@@H]2CC[C@@]3(C)CC4=CC(=O)[C@@H]5[C@](C)(CC[C@@H](O)[C@]5(C)CO)[C@H]4CC[C@@H]3[C@@]2(C)CC[C@@H]1O", "pIC50", "< 4.52"),
    ("CC1(C)[C@H](O)CC[C@]2(C)[C@H]3CC[C@H]4[C@@](C)(CC[C@@H]5[C@]4(C)CC[C@@H](O)[C@]5(C)C(=O)O)CC3=CC(=O)[C@@H]12", "pIC50", "< 4.52"),
    ("CC1(C)C(=O)CC[C@@]2(C)[C@H]1CC[C@@]1(C)CC3=CC(=O)[C@H]4C(C)(C)[C@H](O)CC[C@]4(C)[C@H]3CC[C@@H]12", "pIC50", "< 4.52"),
    ("CC1(C)[C@H](O)CC[C@@]2(C)[C@H]1CC[C@@]1(C)CC3=CC[C@H]4C(C)(C)[C@H](O)CC[C@]4(C)[C@H]3CC[C@@H]12", "pIC50", "< 4.52"),
    ("CC1(C)[C@@H](O)CC[C@@]2(C)[C@H]1CC[C@@]1(C)C[C@@]3(O)CC[C@H]4C(C)(C)[C@@H](O)CC[C@]4(C)[C@H]3CC[C@@H]12", "pIC50", "< 4.52"),
    ("COc1ccc(C(=O)O[C@H]2CC[C@@]3(C)[C@@H](CC[C@@]4(C)C[C@@]5(O)[C@H](CC[C@@H]43)[C@@]3(C)CC[C@@H](O)C(C)(C)[C@@H]3C[C@@H]5O)[C@@]2(C)C(=O)O)cc1O", "pIC50", "< 4.52"),
    ("C[C@@]12CC[C@@H]3[C@](C)(CC[C@H](OC(=O)c4ccc(O)cc4)[C@]3(C)C(=O)O)[C@H]1CC[C@@H]1[C@@]3(C)CC[C@@H](O)[C@](C)(CO)[C@@H]3C[C@H](O)[C@@]1(O)C2", "pIC50", "< 4.52"),
    ("C[C@@]12CC[C@@H]3[C@](C)(CC[C@H](OC(=O)/C=C/c4ccc(O)cc4)[C@]3(C)C(=O)O)[C@H]1CC[C@H]1C(=CC[C@@H]3[C@]1(C)CC[C@@H](O)[C@]3(C)CO)C2", "pIC50", "< 4.52"),
    ("C[C@@]12CC[C@@H]3[C@](C)(CC[C@H](OC(=O)CCc4ccc(O)cc4)[C@]3(C)C(=O)O)[C@H]1CC[C@H]1C(=CC[C@@H]3[C@]1(C)CC[C@@H](O)[C@]3(C)CO)C2", "pIC50", 6.38),
    ("CC1(C)[C@H](O)CC[C@@]2(C)[C@H]1CC[C@@]1(C)CC3=CC[C@H]4C(C)(C)[C@@H](O)CC[C@]4(C)[C@H]3CC[C@@H]12", "pIC50", 5.86),
    ("CC(=O)O[C@H]1CC[C@@]2(C)[C@@H](CC[C@@]3(C)C[C@@]4(O)CC[C@H]5C(C)(C)[C@@H](OC(C)=O)CC[C@]5(C)[C@H]4CC[C@@H]32)C1(C)C", "pIC50", "< 4.52"),
    ("CCCC[C@@H](O)/C=C/C=C/C(=O)O", "pIC50", "< 4.52"),
    ("C[C@@]12CC[C@@H]3[C@](C)(CC[C@H](O)[C@]3(C)C(=O)O)[C@H]1CC[C@H]1C(=CC(=O)[C@@H]3[C@]1(C)CC[C@@H](O)[C@]3(C)CO)C2", "pIC50", "< 4.52"),
]

* * *

The reader will find reported pIC50 values listed item by item below.
target: Beta-secretase 1 (Homo sapiens, UniProt P56817); assay: Inhibition of human recombinant BACE1 by fluorescence resonance energy transfer (FRET) assay
Sequence (P56817 whole entry): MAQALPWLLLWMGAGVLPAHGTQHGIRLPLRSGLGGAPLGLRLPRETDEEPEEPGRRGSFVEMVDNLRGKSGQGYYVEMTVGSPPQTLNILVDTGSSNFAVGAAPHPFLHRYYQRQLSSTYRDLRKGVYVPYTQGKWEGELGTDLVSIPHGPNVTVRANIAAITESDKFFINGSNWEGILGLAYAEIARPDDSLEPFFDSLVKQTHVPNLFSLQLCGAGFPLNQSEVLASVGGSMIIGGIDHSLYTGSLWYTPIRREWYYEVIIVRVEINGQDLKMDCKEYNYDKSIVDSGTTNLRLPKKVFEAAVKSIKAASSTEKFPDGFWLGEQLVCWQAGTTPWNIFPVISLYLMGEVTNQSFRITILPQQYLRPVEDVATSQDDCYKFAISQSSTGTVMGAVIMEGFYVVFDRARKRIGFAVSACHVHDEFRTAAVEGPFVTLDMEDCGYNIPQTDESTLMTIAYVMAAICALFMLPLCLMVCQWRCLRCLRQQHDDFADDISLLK
pIC50: −log10 of the molar value.

# givenSmiles, pIC50
measured = [
    ("CCCC[C@@H](O)/C=C/C=C/C(=O)O", 5.16),
    ("CC1(C)[C@H](O)CC[C@@]2(C)[C@H]1CC[C@@]1(C)CC3=CC[C@H]4C(C)(C)[C@H](O)CC[C@]4(C)[C@H]3CC[C@@H]12", "< 5.00"),
    ("COC(=O)[C@]1(C)[C@@H]2CC[C@@]3(C)CC4=CC(=O)[C@@H]5[C@](C)(CC[C@@H](O)[C@]5(C)CO)[C@H]4CC[C@@H]3[C@@]2(C)CC[C@@H]1O", "< 5.00"),
    ("CC1(C)C(=O)CC[C@@]2(C)[C@H]1CC[C@@]1(C)CC3=CC(=O)[C@H]4C(C)(C)[C@H](O)CC[C@]4(C)[C@H]3CC[C@@H]12", 6.64),
    ("C[C@@]12CC[C@@H]3[C@](C)(CC[C@H](OC(=O)/C=C/c4ccc(O)cc4)[C@]3(C)C(=O)O)[C@H]1CC[C@H]1C(=CC[C@@H]3[C@]1(C)CC[C@@H](O)[C@]3(C)CO)C2", 5.97),
    ("CC1(C)[C@H](O)CC[C@]2(C)[C@H]3CC[C@H]4[C@@](C)(CC[C@@H]5[C@]4(C)CC[C@@H](O)[C@]5(C)C(=O)O)CC3=CC(=O)[C@@H]12", "< 5.00"),
    ("CC1(C)[C@@H](O)CC[C@@]2(C)[C@H]1CC[C@@]1(C)C[C@@]3(O)CC[C@H]4C(C)(C)[C@@H](O)CC[C@]4(C)[C@H]3CC[C@@H]12", "< 5.00"),
    ("CC1(C)[C@H](O)CC[C@@]2(C)[C@H]1CC[C@@]1(C)CC3=CC[C@H]4C(C)(C)[C@@H](O)CC[C@]4(C)[C@H]3CC[C@@H]12", "< 5.00"),
    ("C[C@@]12CC[C@@H]3[C@](C)(CC[C@H](OC(=O)c4ccc(O)cc4)[C@]3(C)C(=O)O)[C@H]1CC[C@@H]1[C@@]3(C)CC[C@@H](O)[C@](C)(CO)[C@@H]3C[C@H](O)[C@@]1(O)C2", 6.51),
    ("COc1ccc(C(=O)O[C@H]2CC[C@@]3(C)[C@@H](CC[C@@]4(C)C[C@@]5(O)[C@H](CC[C@@H]43)[C@@]3(C)CC[C@@H](O)C(C)(C)[C@@H]3C[C@@H]5O)[C@@]2(C)C(=O)O)cc1O", 6.01),
    ("C[C@@]12CC[C@@H]3[C@](C)(CC[C@H](O)[C@]3(C)C(=O)O)[C@H]1CC[C@H]1C(=CC(=O)[C@@H]3[C@]1(C)CC[C@@H](O)[C@]3(C)CO)C2", "< 5.00"),
    ("C[C@@]12CC[C@@H]3[C@](C)(CC[C@H](OC(=O)CCc4ccc(O)cc4)[C@]3(C)C(=O)O)[C@H]1CC[C@H]1C(=CC[C@@H]3[C@]1(C)CC[C@@H](O)[C@]3(C)CO)C2", "< 5.00"),
    ("CC(=O)O[C@H]1CC[C@@]2(C)[C@@H](CC[C@@]3(C)C[C@@]4(O)CC[C@H]5C(C)(C)[C@@H](OC(C)=O)CC[C@]5(C)[C@H]4CC[C@@H]32)C1(C)C", "< 5.00"),
]
